The reported numbers originate from patent US10947242B2.

# subject-of-test: Human recombinant PDE10A (hPDE10A) (Homo sapiens, UniProt Q9Y233)
# Construct: His tag (inferred from metal chelate purification); made in house; host or cells: Sf9 insect cells (baculovirus)
# Sequence (Q9Y233 267-1055): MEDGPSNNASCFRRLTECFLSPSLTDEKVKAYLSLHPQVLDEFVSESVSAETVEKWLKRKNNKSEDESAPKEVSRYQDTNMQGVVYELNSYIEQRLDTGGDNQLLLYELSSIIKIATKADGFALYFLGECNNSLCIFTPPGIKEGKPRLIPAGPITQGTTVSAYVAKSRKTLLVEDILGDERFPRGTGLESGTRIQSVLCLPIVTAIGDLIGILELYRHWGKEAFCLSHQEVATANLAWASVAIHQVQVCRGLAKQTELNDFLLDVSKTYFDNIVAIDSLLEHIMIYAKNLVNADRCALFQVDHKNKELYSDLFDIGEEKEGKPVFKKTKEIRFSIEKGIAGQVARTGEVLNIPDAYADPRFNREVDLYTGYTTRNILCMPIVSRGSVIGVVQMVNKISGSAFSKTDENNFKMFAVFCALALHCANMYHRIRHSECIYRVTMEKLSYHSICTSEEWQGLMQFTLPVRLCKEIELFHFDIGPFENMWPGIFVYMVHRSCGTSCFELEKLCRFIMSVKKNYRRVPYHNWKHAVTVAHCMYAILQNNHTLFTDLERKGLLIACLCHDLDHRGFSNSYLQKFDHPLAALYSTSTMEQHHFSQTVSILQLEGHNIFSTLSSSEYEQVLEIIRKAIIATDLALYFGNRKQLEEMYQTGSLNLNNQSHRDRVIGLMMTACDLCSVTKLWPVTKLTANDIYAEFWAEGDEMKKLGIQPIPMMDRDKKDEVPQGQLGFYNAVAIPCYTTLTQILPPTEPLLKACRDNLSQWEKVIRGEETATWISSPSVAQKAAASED
# measurement-protocol: In vitro assay PDE10A, human clone (SPA, 3H-cAMP hydrolysis)
# Assay type: biochemical
# measurement-conditions: human clone by default (no (r) mark); read-out: hPDE10A2 or rPDE10A2 pIC50 (converted)
Entries are sorted into classes by IC50 as follows: category 1: < 900 nM; category 2: ≥ 900 nM and < 4000 nM; category 3: ≥ 4000 nM

{"columns": ["chemical-structure", "subject-of-test", "assigned-label"],
 "data": [
  ["Cc1cc(C(=O)N2[C@H]3CC[C@H](c4cc(C(F)F)nc5ncnn45)[C@@H]2CC3)cc(C(F)F)n1", "Human recombinant PDE10A (hPDE10A) (Homo sapiens, UniProt Q9Y233)", "category 2"],
  ["Cc1ccc(C(=O)N2[C@H]3CC[C@H](c4cc(C(F)F)nc5ncnn45)[C@@H]2CC3)o1", "Human recombinant PDE10A (hPDE10A) (Homo sapiens, UniProt Q9Y233)", "category 3"],
  ["O=C(c1ccc(F)c(OC(F)F)c1)N1[C@H]2CC[C@H](c3cc(C(F)F)nc4ncnn34)[C@@H]1CC2", "Human recombinant PDE10A (hPDE10A) (Homo sapiens, UniProt Q9Y233)", "category 2"],
  ["Cc1cnc(C(=O)N2CC[C@@H](C)[C@H](c3cc(C(F)F)nc4ncnn34)C2)cn1", "Human recombinant PDE10A (hPDE10A) (Homo sapiens, UniProt Q9Y233)", "category 3"],
  ["Cc1cccnc1C(=O)N1CC[C@@H](C)[C@H](c2cc(C(F)F)nc3ncnn23)C1", "Human recombinant PDE10A (hPDE10A) (Homo sapiens, UniProt Q9Y233)", "category 3"],
  ["C[C@@H]1CCN(C(=O)c2nccnc2Cl)C[C@H]1c1cc(C(F)F)nc2ncnn12", "Human recombinant PDE10A (hPDE10A) (Homo sapiens, UniProt Q9Y233)", "category 3"],
  ["C[C@@H]1CCN(C(=O)c2cnc3c(F)cccc3c2)C[C@H]1c1cc(C(F)F)nc2ncnn12", "Human recombinant PDE10A (hPDE10A) (Homo sapiens, UniProt Q9Y233)", "category 1"],
  ["Cc1nc(C2CC2)cc(C(=O)N2CC[C@@H](C)[C@H](c3cc(C(F)F)nc4ncnn34)C2)c1F", "Human recombinant PDE10A (hPDE10A) (Homo sapiens, UniProt Q9Y233)", "category 1"],
  ["O=C(c1ccc(C(F)(F)F)c(F)c1)N1[C@H]2CC[C@H](c3cc(C(F)F)nc4ncnn34)[C@@H]1CC2", "Human recombinant PDE10A (hPDE10A) (Homo sapiens, UniProt Q9Y233)", "category 2"],
  ["Cc1cc([C@H]2CN(C(=O)c3cc(C)c(Cl)c(C)c3)CC[C@@H]2C)n2ncnc2n1", "Human recombinant PDE10A (hPDE10A) (Homo sapiens, UniProt Q9Y233)", "category 2"],
  ["Cc1cc([C@@H]2CN(C(=O)c3cc(C4CC4)ncc3C(F)(F)F)CC[C@H]2C)n2ncnc2n1", "Human recombinant PDE10A (hPDE10A) (Homo sapiens, UniProt Q9Y233)", "category 1"],
  ["Cc1cc(C(=O)N2CC[C@H](C)[C@@H](c3cc(C(F)F)nc4ncnn34)C2)cc(C)n1", "Human recombinant PDE10A (hPDE10A) (Homo sapiens, UniProt Q9Y233)", "category 3"],
  ["Cn1cnc2cc(C(=O)N3[C@H]4CC[C@H](c5cc(C(F)F)nc6ncnn56)[C@@H]3CC4)ccc21", "Human recombinant PDE10A (hPDE10A) (Homo sapiens, UniProt Q9Y233)", "category 2"],
  ["O=C(c1ccc2cnccc2c1)N1[C@H]2CC[C@H](c3cc(C(F)F)nc4ncnn34)[C@@H]1CC2", "Human recombinant PDE10A (hPDE10A) (Homo sapiens, UniProt Q9Y233)", "category 2"],
  ["C[C@@H]1CCN(C(=O)c2ccncc2Cl)C[C@H]1c1cc(C(F)F)nc2ncnn12", "Human recombinant PDE10A (hPDE10A) (Homo sapiens, UniProt Q9Y233)", "category 3"]
]}
